- System: A498 renal
- testDetails: NCI tumour cell line growth inhibition, 48 h
reportedProperty: log10(TGI) (log10 of the value in µM)

{"compound": "CCN(CC)CC(O)C1CCC(c2ccccc2)CC1 (stereo not given)", "reportedProperty": "log10(TGI)", "endpointValue": 1.63}
{"compound": "COc1ccc(Nc2ncccc2C(=O)NCc2cn(Cc3cccc(Oc4ccccc4)c3)nn2)cc1", "reportedProperty": "log10(TGI)", "endpointValue": 0.94}
{"compound": "CCN1CCN(C(=O)[C@]23CCC(C)(C)C[C@@H]2C2=CC[C@@H]4[C@@]5(C)C/C(=C/c6cccnc6)C(=O)C(C)(C)[C@@H]5CC[C@@]4(C)[C@]2(C)CC3)CC1", "reportedProperty": "log10(TGI)", "endpointValue": 0.55}
{"compound": "COc1ccc(-c2nocc2-c2cc(OC)c(OC)c(OC)c2)cc1", "reportedProperty": "log10(TGI)", "endpointValue": 0.46}
{"compound": "CC[C@@]1(O)C(=O)OCc2c1cc1n(c2=O)Cc2c-1nc1ccccc1c2/C=N/OC(C)(C)C", "reportedProperty": "log10(TGI)", "endpointValue": -0.77}
{"compound": "COc1ccc(Cn2c(Br)c3c(c2-c2cc(OC)c(OC)c(OC)c2)CCc2sc(NC(C)=O)nc2-3)cc1", "reportedProperty": "log10(TGI)", "endpointValue": 0.98}
{"compound": "O=CC1(C2(C=O)c3ccccc3-c3ccccc32)c2ccccc2-c2ccccc21", "reportedProperty": "log10(TGI)", "endpointValue": 0.73}
